Recorded pest or weed control at 70 g/ha, one value per entry.
experiment: Post-emergent Test III, herbicidal activity in wheat and barley; assay type: in vivo, Lolium multiflorum, Lolium rigidum; details: Lolium multiflorum, post-emergence, 504 h; Table 9; 70 g ai/ha; post-emergent; 21 d; read-out: Visual Growth Reduction (%) 21 Days After Application LOLSS
Result Type: pest or weed control at 70 g/ha

[[record]]
line_notation = "Nc1c(F)c(-c2cc(F)c(Br)cc2F)nc(C(=O)O)c1Cl"
result_type = "pest or weed control at 70 g/ha"
reported_measurement = "45 to 59%"

[[record]]
line_notation = "COC(=O)c1nc(-c2ccc(I)cc2F)cc(N)c1Cl"
result_type = "pest or weed control at 70 g/ha"
reported_measurement = "60 to 74%"

[[record]]
line_notation = "COC(=O)c1nc(-c2ccc(I)cc2)c(Cl)c(N)c1Cl"
result_type = "pest or weed control at 70 g/ha"
reported_measurement = "60 to 74%"

[[record]]
line_notation = "C#Cc1ccc(-c2nc(N)c(OC)c(C(=O)O)n2)c(F)c1F"
result_type = "pest or weed control at 70 g/ha"
reported_measurement = "0 to 29%"

